What follows is a record of IC50 for human ACC2 (Homo sapiens (Human), UniProt O00763).
MEASURED_ENDPOINT: IC50 (nM)

These solved cases illustrate the format of a correct answer.
- MOLECULE: "CCCOc1cc(N2CC[C@@H](Oc3ccc([C@H](C)NC(=O)c4cncs4)cc3)C2)ccn1"
  UNITS_LABEL: "nM"
  IC50: 35
- MOLECULE: "CCCN(C)c1nccc(N2CC[C@@H](Oc3ccc([C@H](C)NC(C)=O)cc3)C2)c1F"
  UNITS_LABEL: "nM"
  IC50: 70
- MOLECULE: "CNC(=O)N[C@@H](C)c1ccc(OC2CCN(c3ccnc(OCC(F)F)c3)C2)cc1 (some centres unmarked)"
  UNITS_LABEL: "nM"
  IC50: 238
- MOLECULE: "CC(=O)N[C@@H](C)c1ccc(O[C@@H]2CCN(c3ccc(OC[C@@H]4CC4(F)F)cn3)C2)cc1"
  UNITS_LABEL: "nM"
  IC50: 753

P: CCOc1ccc(N2CCC(Oc3ccc([C@H](C)NC(C)=O)cc3)C2)nc1 (some centres unmarked)
Q: CC(=O)N[C@@H](C)c1ccc(O[C@@H]2CCN(c3ccnc(N4CCC(F)(F)C4)c3F)C2)cc1
R: COc1c(N2CC[C@@H](Oc3ccc([C@H](C)NC(C)=O)cc3)C2)ccnc1OCCC1CC1
S: C[C@H](NC(=O)CC#N)c1ccc(OC2CCN(c3ccnc(OCC4CC4)c3)C2)cc1 (some centres unmarked)
Query: Ordering: ascending IC50. # format: label list in the order the request specifies
Response: Q, R, S, P

* * *

What follows is a record of IC50 for human ACC2 (Homo sapiens (Human)).
MEASURED_ENDPOINT: IC50 (nM)

- COMPOUND: "CC(=O)Nc1nc(C)c(C(=O)N[C@@H](C)c2ccc(OC3CCN(c4ccnc(N5CCC(F)(F)C5)c4F)C3)cc2)s1 (stereo partly drawn) [Example 2.123]"
  SYSTEM_TESTED: "human ACC2 (Homo sapiens (Human))"
  UNITS_LABEL: "nM"
  READING: 58
- COMPOUND: "CC(C)Oc1cc(N2CCC(Oc3ccc([C@H](C)NC(=O)c4cn[nH]c4)cc3)C2)ccn1 (stereo partly drawn) [Example 2.8]"
  SYSTEM_TESTED: "human ACC2 (Homo sapiens (Human))"
  UNITS_LABEL: "nM"
  READING: 65
- COMPOUND: "CCC(=O)Nc1nc(C)c(C(=O)N[C@@H](C)c2ccc(O[C@@H]3CCN(c4ccnc(OCC5CC5)c4Cl)C3)cc2)s1 [Example 9.73]"
  SYSTEM_TESTED: "human ACC2 (Homo sapiens (Human))"
  UNITS_LABEL: "nM"
  READING: 45
- COMPOUND: "C[C@H](NC(=O)C(C)(C)F)c1ccc(OC2CCN(c3ccnc(OCC4CC4)c3)C2)cc1 (stereo partly drawn) [Example 2.80]"
  SYSTEM_TESTED: "human ACC2 (Homo sapiens (Human))"
  UNITS_LABEL: "nM"
  READING: 122
- COMPOUND: "COC(=O)N[C@@H](C)c1ccc(OC2CCN(c3ccnc(OCC4CC4(F)F)c3F)C2)cc1 (stereo partly drawn) [Example 4.6]"
  SYSTEM_TESTED: "human ACC2 (Homo sapiens (Human))"
  UNITS_LABEL: "nM"
  READING: 68
- COMPOUND: "C[C@H](NC(=O)c1ccno1)c1ccc(OC2CCN(c3ccnc(OCC(F)F)c3)C2)cc1 (stereo partly drawn) [Example 2.107]"
  SYSTEM_TESTED: "human ACC2 (Homo sapiens (Human))"
  UNITS_LABEL: "nM"
  READING: 389
- COMPOUND: "CC(=O)NC1CCN(C(=O)N[C@@H](C)c2ccc(OC3CCN(c4ccc(OCC5CC5(F)F)cn4)C3)cc2)CC1 (stereo partly drawn) [Example 3.11]"
  SYSTEM_TESTED: "human ACC2 (Homo sapiens (Human))"
  UNITS_LABEL: "nM"
  READING: 314
- COMPOUND: "CC(C)Oc1cc(N2CCC(Oc3ccc([C@H](C)NC(=O)C4(C(F)(F)F)CC4)cc3)C2)ccn1 (stereo partly drawn) [Example 2.17]"
  SYSTEM_TESTED: "human ACC2 (Homo sapiens (Human))"
  UNITS_LABEL: "nM"
  READING: 607
- COMPOUND: "CC(=O)N[C@@H](C)c1ccc(O[C@@H]2CCN(c3cc(N(C)C)ncc3F)C2)cc1 [Example 10.24]"
  SYSTEM_TESTED: "human ACC2 (Homo sapiens (Human))"
  UNITS_LABEL: "nM"
  READING: 285
- COMPOUND: "CC(=O)N[C@@H](C)c1ccc(O[C@@H]2CCN(c3nc(N4CCCCC4)c(F)cc3F)C2)cc1 [Example 10.6]"
  SYSTEM_TESTED: "human ACC2 (Homo sapiens (Human))"
  UNITS_LABEL: "nM"
  READING: 827

P: CC(=O)N[C@@H](C)c1ccc(O[C@@H]2CCN(c3ccnc(N4CCCCC4)c3F)C2)cc1 [Example 1.102]
Q: COC[C@H]1CCCN1c1cccc(N2CC[C@@H](Oc3ccc([C@H](C)NC(C)=O)cc3)C2)n1 [Example 10.41]
R: C[C@H](NC(=O)c1cnco1)c1ccc(OC2CCN(c3ccnc(OCC(F)F)c3)C2)cc1 (stereo partly drawn) [Example 2.111]
Query: Sort these compounds on IC50 so the largest reading comes first. # format: label list in the order the request specifies
Response: Q, R, P

I: CC(=O)N[C@@H](C)c1ccc(O[C@@H]2CCN(c3cccc(N(C)C(C)C)n3)C2)cc1 [Example 10.31]
II: C[C@H](NC(=O)c1cncs1)c1ccc(OC2CCN(c3ccnc(N4CCC(F)(F)C4)c3F)C2)cc1 (stereo partly drawn) [Example 2.125]
Query: Form field 'greater IC50' accepts I or II ; which applies? Identify your pick by its label.
Response: I
(I: 314 nM, II: 60 nM)

* * *

pIC50: −log10 of the molar value.
What follows is a record of pIC50 for human ACC2 (Homo sapiens (Human), UniProt O00763).
MEASURED_ENDPOINT: pIC50

These solved cases illustrate the format of a correct answer.
- COMPOUND: "CC(=O)N[C@@H](C)c1ccc(O[C@@H]2CCN(c3cccc(N(C)C4CCC4)n3)C2)cc1 [Example 1.134]"
  pIC50: 6.99
- COMPOUND: "COC(=O)N[C@@H](C)c1ccc(OC2CCN(c3ccnc(OCC(F)F)c3)C2)cc1 (stereo partly shown) [Example 4.5]"
  pIC50: 6.78
- COMPOUND: "C[C@H](NC(=O)C1CC1)c1ccc(OC2CCN(c3ccc(OCC4CC4(F)F)cn3)C2)cc1 (stereo partly shown) [Example 2.56]"
  pIC50: 6.76
- COMPOUND: "C[C@H](NC(=O)N1CCCC1)c1ccc(OC2CCN(c3ccc(OCC4CC4(F)F)cn3)C2)cc1 (stereo partly shown) [Example 3.18]"
  pIC50: 6.37
- COMPOUND: "C[C@H](NC(=O)c1cncs1)c1ccc(O[C@@H]2CCN(c3ccnc(OCC4CC4)c3)C2)cc1 [Example 9.63]"
  pIC50: 7.26

P: CC(=O)N[C@@H](C)c1ccc(O[C@@H]2CCN(c3ccnc(OC4CCOCC4)c3)C2)cc1 [Example 9.22]
Q: Cc1cc(CC(=O)N[C@@H](C)c2ccc(OC3CCN(c4ccnc(OCC(F)F)c4)C3)cc2)on1 (stereo partly shown) [Example 2.100]
Query: Form field 'greater pIC50' accepts P or Q ; which applies? Identify your pick by its label.
Response: P

* * *

# SYSTEM_TESTED: human ACC2 (Homo sapiens (Human))
MEASURED_ENDPOINT: IC50 (nM)

- COMPOUND: "CC(=O)N[C@@H](C)c1ccc(O[C@@H]2CCN(c3ccc(Cl)c(C(F)(F)F)n3)C2)cc1 [Example 8.8]"
  IC50 / nM: 265

P: CCC(CC)Oc1cc(N2CC[C@@H](Oc3ccc([C@H](C)NC(C)=O)cc3)C2)ccn1 [Example 9.20]
Q: CCC(=O)N[C@@H](C)c1ccc(OC2CCN(c3cccc(C(F)(F)F)n3)C2)cc1 (stereo partly shown) [Example 2.41]
R: CC(=O)N[C@@H](C)c1ccc(OC2CCN(c3cccc(C(C)(C)C)n3)C2)cc1 (stereo partly shown) [Example 1.59]
Query: Ordering: ascending IC50. # format: label list in the order the request specifies
Response: P, R, Q

* * *

# SYSTEM_TESTED: human ACC2 (Homo sapiens (Human), UniProt O00763)
# Sequence (O00763 129-2458): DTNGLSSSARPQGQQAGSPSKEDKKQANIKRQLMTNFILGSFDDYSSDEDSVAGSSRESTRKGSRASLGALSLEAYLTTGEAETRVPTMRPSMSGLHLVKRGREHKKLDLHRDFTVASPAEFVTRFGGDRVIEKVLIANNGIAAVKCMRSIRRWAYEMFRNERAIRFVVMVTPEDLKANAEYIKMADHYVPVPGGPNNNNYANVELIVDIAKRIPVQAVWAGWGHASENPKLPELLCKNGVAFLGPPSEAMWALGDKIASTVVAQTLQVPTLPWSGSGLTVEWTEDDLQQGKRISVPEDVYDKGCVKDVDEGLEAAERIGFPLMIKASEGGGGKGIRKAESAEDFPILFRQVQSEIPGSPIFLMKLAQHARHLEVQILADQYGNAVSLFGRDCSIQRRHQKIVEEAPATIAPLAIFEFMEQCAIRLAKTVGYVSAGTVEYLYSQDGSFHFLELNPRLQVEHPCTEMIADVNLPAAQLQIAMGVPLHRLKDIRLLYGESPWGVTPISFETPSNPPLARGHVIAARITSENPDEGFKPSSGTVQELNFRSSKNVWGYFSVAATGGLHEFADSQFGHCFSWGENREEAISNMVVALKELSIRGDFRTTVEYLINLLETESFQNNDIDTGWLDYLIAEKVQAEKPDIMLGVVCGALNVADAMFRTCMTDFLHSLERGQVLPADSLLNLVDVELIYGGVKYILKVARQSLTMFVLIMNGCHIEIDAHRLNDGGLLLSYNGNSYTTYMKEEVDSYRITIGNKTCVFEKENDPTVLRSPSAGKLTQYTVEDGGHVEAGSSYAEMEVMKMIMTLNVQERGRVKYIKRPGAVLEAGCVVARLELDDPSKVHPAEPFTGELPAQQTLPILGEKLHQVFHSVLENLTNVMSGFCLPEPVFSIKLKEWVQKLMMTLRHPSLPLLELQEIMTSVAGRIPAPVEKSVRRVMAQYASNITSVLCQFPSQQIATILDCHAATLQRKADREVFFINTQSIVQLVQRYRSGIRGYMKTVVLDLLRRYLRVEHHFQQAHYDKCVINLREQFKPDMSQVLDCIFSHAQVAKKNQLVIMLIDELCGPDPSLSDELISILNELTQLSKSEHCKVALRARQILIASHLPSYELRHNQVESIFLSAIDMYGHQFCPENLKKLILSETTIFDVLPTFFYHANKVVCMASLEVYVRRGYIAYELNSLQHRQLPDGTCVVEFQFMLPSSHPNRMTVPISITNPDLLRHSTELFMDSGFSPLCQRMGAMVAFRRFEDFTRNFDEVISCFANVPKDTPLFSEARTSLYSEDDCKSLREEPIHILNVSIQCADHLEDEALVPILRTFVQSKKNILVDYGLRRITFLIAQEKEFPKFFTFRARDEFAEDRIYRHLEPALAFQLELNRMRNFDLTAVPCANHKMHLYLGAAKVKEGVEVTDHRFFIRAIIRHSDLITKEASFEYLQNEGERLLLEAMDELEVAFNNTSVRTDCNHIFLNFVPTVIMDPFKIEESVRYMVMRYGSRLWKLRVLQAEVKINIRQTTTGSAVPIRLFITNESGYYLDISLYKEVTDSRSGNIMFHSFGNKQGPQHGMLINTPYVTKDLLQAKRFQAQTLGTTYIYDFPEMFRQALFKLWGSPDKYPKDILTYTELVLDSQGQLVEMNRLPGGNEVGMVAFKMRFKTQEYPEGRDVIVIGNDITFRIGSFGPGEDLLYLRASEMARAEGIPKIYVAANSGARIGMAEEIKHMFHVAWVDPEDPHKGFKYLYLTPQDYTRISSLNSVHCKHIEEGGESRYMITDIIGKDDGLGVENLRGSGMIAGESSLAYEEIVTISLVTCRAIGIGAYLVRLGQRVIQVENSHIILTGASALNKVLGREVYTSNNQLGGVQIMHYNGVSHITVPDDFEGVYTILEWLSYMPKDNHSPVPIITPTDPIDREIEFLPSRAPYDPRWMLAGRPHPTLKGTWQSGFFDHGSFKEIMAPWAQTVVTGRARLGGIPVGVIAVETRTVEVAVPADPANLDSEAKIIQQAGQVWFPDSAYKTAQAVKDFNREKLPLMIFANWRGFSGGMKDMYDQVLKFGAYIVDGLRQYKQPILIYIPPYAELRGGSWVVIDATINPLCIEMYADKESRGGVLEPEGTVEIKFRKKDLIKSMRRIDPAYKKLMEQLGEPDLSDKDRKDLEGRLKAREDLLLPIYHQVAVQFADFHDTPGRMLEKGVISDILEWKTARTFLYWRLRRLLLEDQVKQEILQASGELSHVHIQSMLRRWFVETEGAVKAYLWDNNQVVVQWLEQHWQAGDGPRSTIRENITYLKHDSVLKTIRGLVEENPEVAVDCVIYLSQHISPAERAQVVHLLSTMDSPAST
# ASSAY_INFO: ACC2 assay, spectrophotometric 384 well assay (NADH-linked kinetic method)
# Assay type: biochemical
# DETAILS: human ACC2 construct lacking the 128 N-terminal amino acids; coupled lactate dehydrogenase/pyruvate kinase reaction, 340 nm, 25° C.
pIC50: −log10 of the molar value.
MEASURED_ENDPOINT: pIC50

These solved cases illustrate the format of a correct answer.
- COMPOUND: "CC(=O)N[C@@H](C)c1ccc(O[C@@H]2CCN(c3ccnc(O[C@@H]4CCOC4)c3)C2)cc1"
  pIC50: 6.74
- COMPOUND: "CC(=O)N[C@@H](C)c1ccc(O[C@@H]2CCN(c3ccnc(OCC(C)O)c3F)C2)cc1 (stereo partly shown)"
  pIC50: 6.66
- COMPOUND: "CCOc1cc(N2CC[C@@H](Oc3ccc([C@H](C)NC(=O)c4sc(NC(C)=O)nc4C)cc3)C2)ccn1"
  pIC50: 6.92
- COMPOUND: "CC(C)Oc1cc(N2CCC(Oc3ccc([C@H](C)NC(=O)c4ccoc4)cc3)C2)ccn1 (stereo partly shown)"
  pIC50: 6.96
- COMPOUND: "CCOc1cnc(N2CCC(Oc3ccc([C@H](C)NC(C)=O)cc3)C2)c(Cl)c1 (stereo partly shown)"
  pIC50: 6.70
- COMPOUND: "C[C@H](NC(=O)C(C)(C)C)c1ccc(O[C@@H]2CCN(c3cccc(C(F)(F)F)n3)C2)cc1"
  pIC50: 6.19

P: CCC(=O)Nc1nc(C)c(C(=O)N[C@@H](C)c2ccc(O[C@@H]3CCN(c4ccc(OC[C@@H]5CC5(F)F)cn4)C3)cc2)s1
Q: C[C@H](NC(=O)C1CC1)c1ccc(OC2CCN(c3cccc(C(F)(F)F)n3)C2)cc1 (stereo partly shown)
R: CC(=O)N[C@@H](C)c1ccc(O[C@@H]2CCN(c3ccnc(NCC(C)(C)O)c3Cl)C2)cc1
S: CCc1cccc(N2CCC(Oc3ccc([C@H](C)NC(C)=O)cc3)C2)n1 (stereo partly shown)
T: COc1c(N2CC[C@@H](Oc3ccc([C@H](C)NC(C)=O)cc3)C2)ccnc1OCC1CC1
Query: Sort these compounds on pIC50 so the largest reading comes first. # format: label list in the order the request specifies
Response: T, R, S, Q, P

P: C[C@H](NC(=O)c1cnco1)c1ccc(OC2CCN(c3cccc(C(F)(F)F)n3)C2)cc1 (stereo partly shown)
Q: CC(=O)N[C@@H](C)c1ccc(OC2CCN(c3cc(OCC4CC4)ncc3C)C2)cc1 (stereo partly shown)
Query: Look at P and Q . Which one has the lower recorded pIC50 number? Identify your pick by its label.
Response: Q
